B1: SOAT1 (parent)
chain: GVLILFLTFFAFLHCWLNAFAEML

# Variants of: B1
# test name: protein stability index of a GFP-peptide fusion (GPS, HEK-293T) (PSI 1-6); higher = more stable;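 also: lentivirally expressed fusions sorted by FACS into six bins by GFP to DsRed ratio, PSI derived from sequencing read proportions per bin multiplied by bin number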
# conditions: c terminus: a fixed tail appended
measured quantity: protein stability index
Lab note: jot the number down without any unit.

Sample records with protein stability index:
F20S | 2.94
A19M | 3.03
L3R | 2.98
C15L | 2.97
T8H | 3.09
A19L | 3.05
N18W | 2.94

Kindly consider the entry below.
Query block: I have this variant here, L3S , and I need its recorded protein stability index.
Result block: 3.06
